Cited source for all entries: PubChem BioAssay (NCI)

Give measured TGI for each item. Keep answers brief.
tested on: MCF7 breast; experiment: NCI tumour cell line growth inhibition, 48 h

Qu. // TGI lookup, key: CC(C)(C)OC(=O)NCCCCC1NC(=O)[C@@H]2Cc3c([nH]c4ccccc34)C(c3ccccc3)N2C1=O (some centres undefined)
Ans. > 100 µM

Qu. # iterate: `CC(=O)OC/C=C/Cn1nc(Br)c(=O)[nH]c1=O`
Ans. > 100 µM

Qu. # iterate: COC(=O)C1CCC(=S)N1C(C)=O (centres undefined)
Ans. > 100 µM

Qu. # iterate: CC(=O)OC1C(C)OC(OC2C[C@](O)(C(C)=O)Cc3c(O)c4c(c(O)c32)C(=O)c2ccccc2C4=O)C(F)C1OC(C)=O (some centres undefined)
Ans. > 20.2 µM

====

tested on: OVCAR-3 ovarian; test: NCI tumour cell line growth inhibition, 48 h
Give measured TGI for each item. Keep answers brief.

Qu. Return TGI measured with OVCAR-3 ovarian given this compound: Cc1cccc2c1Oc1ncccc1C2NC(=O)CN(C)C (stereo not drawn)
Ans. > 10 µM

Qu. # iterate: `Cc1[nH]n(C(=O)c2ccc(Cl)cc2)c(=O)c1/C=C1\C(O)=CC(=O)c2ccccc21`
Ans. > 100 µM

Qu. # iterate: `Cn1ncc2c(c1=O)Nc1ccccc1S2(=O)=O`
Ans. > 100 µM

Qu. # iterate: `Nc1nc(N)c(-c2ccccc2)c(C(=O)Nc2nccs2)n1`
Ans. > 100 µM

Qu. # iterate: `O=C(Cn1c(-c2ccccc2)cc2ccccc21)N1CCOCC1`
Ans. > 100 µM

Qu. # iterate: `O=C1COc2c(CCNCCN(C(=O)CCNCCc3ccc(Cl)c(Cl)c3)C3CCCCC3)ccc(O)c2N1`
Ans. 32.1 µM

Qu. # iterate: `CCOC(=O)C1=C(O)c2c(OC)ccc(OC)c2C(=O)C1=O`
Ans. > 100 µM

Qu. # iterate: `NNC(=O)COc1nc(-c2cccs2)nc2ccc(I)cc12`
Ans. 40.7 µM

Qu. # iterate: `Nc1cc(O)c2cc(N=Nc3ccc(N=Nc4ccc(N=Nc5ccc6cc(S(=O)(=O)O)cc(S(=O)(=O)O)c6c5)c5ccccc45)c4cc(S(=O)(=O)O)ccc34)c(S(=O)(=O)O)cc2c1`
Ans. > 100 µM

Qu. # iterate: `CN1CCN(Cc2ccc(NC(=O)c3cncc(C#Cc4cnc5cccnn45)c3)cc2C(F)(F)F)CC1`
Ans. 5.5 µM

Qu. # iterate: `CCc1c[nH]c2ncnc(N3CC[C@](N)(CNC(=O)c4ccc(F)cc4F)C3)c12`
Ans. > 100 µM

Qu. # iterate: COC(=O)C1=C(C)N(NC(=O)Nc2ccccc2)C2(N)N(NC(=O)Nc3ccccc3)C(C)=C(C(=O)OC)C12C(=O)OC (stereo not drawn)
Ans. > 100 µM

Qu. # iterate: `Cn1c(=O)c2c(n(C)c1=O)n1c(=O)c3ccccc3nc1n2C`
Ans. > 100 µM

Qu. # iterate: CCCCN1/C(=N/Nc2n[nH]c(=O)c3ccccc23)SCC1c1ccc(Cl)cc1 (stereo not drawn)
Ans. 37.6 µM

Qu. # iterate: `Nc1ccc2ncc(Nc3ccc(Cl)c(Cl)c3)nc2c1`
Ans. 40.1 µM

Qu. # iterate: `CC(=O)Oc1cc(OC(C)=O)c2c(c1C)CC[C@@H]1[C@@H]2CC[C@]2(C)[C@@H](OC(C)=O)CC[C@@H]12`
Ans. 31.7 µM

Qu. # iterate: CCOC(=O)C1(NC(=O)OC(C)(C)C)CCc2[nH]oc(=O)c2C1 (stereo not drawn)
Ans. > 100 µM

Qu. # iterate: `COc1cccc(OC)c1/C=N\N1C(=O)c2ccccc2C1=O`
Ans. 44.1 µM

Qu. # iterate: `CCOC(=O)Oc1ccc2[nH]c3c(C)cc(N)c(C)c3c2c1`
Ans. > 100 µM

Qu. # iterate: `CC(=O)OC/C=C/Cn1nc(Br)c(=O)[nH]c1=O`
Ans. > 100 µM

Qu. # iterate: `O=C(NCc1cccnc1)c1ccc([N+](=O)[O-])o1`
Ans. 6.89 µM

Qu. # iterate: COC(=O)N/N=C(\c1nc2ccc(Cl)cc2[nH]c1=O)C(O)c1ccc([N+](=O)[O-])cc1 (stereo not drawn)
Ans. > 100 µM

Qu. # iterate: `O=C1NC2(CCCCC2)C2=C1CCCCC2`
Ans. > 100 µM

====

system: 786-0 renal; experiment: NCI tumour cell line growth inhibition, 48 h
Give measured TGI for each item. Keep answers brief.

Qu. // TGI lookup, key: `Nc1nc(N)c(-c2ccccc2)c(C(=O)Nc2nccs2)n1`
Ans. > 100 µM

Qu. # iterate: CC(C)C12CCC3(CCC4C(C)(C(=O)O)CCCC4(C)C3C1)C(CN)C2 (stereo not given)
Ans. 54.4 µM

Qu. # iterate: `FC(F)(Sc1nc2ccccc2[nH]1)c1nc2ccccc2o1`
Ans. > 100 µM

Qu. # iterate: CC(=O)OCC1OC(OC(C)=O)C(NC#N)C(OC(C)=O)C1OC(C)=O (stereo not given)
Ans. > 100 µM

Qu. # iterate: `O=C1Cc2c([nH]c3c(Br)cccc23)-c2ccccc2N1`
Ans. > 100 µM

Qu. # iterate: `Cc1[nH]n(C(=O)c2ccc(Cl)cc2)c(=O)c1/C=C1\C(O)=CC(=O)c2ccccc21`
Ans. > 100 µM

Qu. # iterate: CC1CC2C(=O)N(c3ccccc3)C(=O)C2c2[nH]c3ccccc3c21 (stereo not given)
Ans. > 100 µM

Qu. # iterate: `CC(=O)Nc1ccc(C(=O)COc2cccc(/C=C3\CCc4ccccc4C3=O)c2)cc1`
Ans. > 100 µM

Qu. # iterate: `N#Cc1c(N)nc(N2CCOCC2)c(C#N)c1-c1ccc(Cl)cc1Cl`
Ans. 44.8 µM

Qu. # iterate: `CCOC(=O)C1=C(O)c2c(OC)ccc(OC)c2C(=O)C1=O`
Ans. > 100 µM

Qu. # iterate: `Oc1ccc(CCNc2nc3ccccc3c3[nH]c4ccccc4c23)cc1`
Ans. 2.69 µM

Qu. # iterate: `Nc1ccc(N)c2c1C(=O)c1cccc([N+](=O)[O-])c1C2=O`
Ans. 32.1 µM

Qu. # iterate: `COc1ccc2c(C=O)c3n(c(=O)c2c1OC)CCc1cc2c(cc1-3)OCO2`
Ans. > 100 µM

Qu. # iterate: `N#Cc1c(N)n(-c2nc3ccccc3s2)c(=O)c2cc([N+](=O)[O-])ccc12`
Ans. > 66.3 µM

Qu. # iterate: CC1SCCc2nc3ccccc3n21 (stereo not given)
Ans. > 100 µM

Qu. # iterate: `CCc1nc2cc(F)ccc2[nH]c1=O`
Ans. > 100 µM

Qu. # iterate: `CCOC(=O)c1c(SCCN(CC)CC)n(-c2ccccc2)c(=S)n(-c2ccccc2)c1=O`
Ans. 3.17 µM

Qu. # iterate: CCCCCNC(=O)OC1CCn2c1nc1c2C(=O)C(C)=C(N2CC2)C1=O (stereo not given)
Ans. 1.75 µM

Qu. # iterate: COc1cc(COC(=O)NC(Cc2cccs2)C(=O)O)c([N+](=O)[O-])cc1OC (stereo not given)
Ans. > 100 µM

Qu. # iterate: `Cc1c(Cl)cc(C(C)(C)C)c(O)c1Cc1c(C)c(Cl)cc(C(C)(C)C)c1O`
Ans. 4.57 µM

Qu. # iterate: `CCc1n[nH]c(=O)n1-c1ccncc1`
Ans. > 100 µM

Qu. # iterate: `CCN(CC)CCCNc1nnc(C)c2[nH]c3ccccc3c12`
Ans. 94 µM

Qu. # iterate: `CCOC(=O)c1sc2nc(SC)nc3c2c1NCN3c1ccccc1Cl`
Ans. > 100 µM

Qu. # iterate: O=C(O)C12C3C4C1C1C2C3C41I (stereo not given)
Ans. > 100 µM

Qu. # iterate: CCCCN1/C(=N/Nc2n[nH]c(=O)c3ccccc23)SCC1c1ccc(Cl)cc1 (stereo not given)
Ans. 42.2 µM

Qu. # iterate: `O=C(/C=C/c1ccc(OCC(=O)N2CCN(c3ccccc3)CC2)cc1)c1ccccc1`
Ans. > 57.9 µM

Qu. # iterate: `C(/Cc1ccc2c(c1)OCO2)=N\NC1=NCCCCN1`
Ans. > 100 µM

Qu. # iterate: `CCNc1nc(-c2ccc(Cl)c(OC)c2)c(-c2ccnc(NCCNS(=O)(=O)c3ccc(Cl)cc3)n2)s1`
Ans. 13.9 µM

Qu. # iterate: `Nc1c(/C=C/c2cc3cc(C4=NCCN4)ccc3o2)[nH]c2cc(C3=NCCN3)ccc12`
Ans. > 100 µM

Qu. # iterate: `O=C(Cn1c(-c2ccccc2)cc2ccccc21)N1CCOCC1`
Ans. > 100 µM

====

tested on: DU-145 prostate; assay: NCI tumour cell line growth inhibition, 48 h
Give measured TGI for each item. Keep answers brief.

Qu. // TGI lookup, key: `CNc1nc(OC)c2c(n1)[n+](C)cn2C`
Ans. > 100 µM

Qu. # iterate: O=P1(C(O)c2ccccc2)N(Cc2ccccc2)[C@@H]2CCCC[C@H]2N1Cc1ccccc1 (some centres not stated)
Ans. > 100 µM

Qu. # iterate: `CCOC(=O)c1c(SCCN(CC)CC)n(-c2ccccc2)c(=S)n(-c2ccccc2)c1=O`
Ans. 3.06 µM

Qu. # iterate: `N#Cc1c2c(c(Nc3ccc(Cl)cc3)n3c1nc1ccccc13)CCCC2`
Ans. > 100 µM

Qu. # iterate: `O=C1Cc2c([nH]c3c(Br)cccc23)-c2ccccc2N1`
Ans. > 100 µM

Qu. # iterate: `O=C(NCc1ccc(Cl)c(Cl)c1)c1nc2ccccc2nc1NCc1ccc(Cl)c(Cl)c1`
Ans. > 100 µM

Qu. # iterate: `[O-]c1c2cc(-[n+]3c(-c4ccccc4)cc(-c4ccccc4)cc3-c3ccccc3)cc1CO[C@@H](c1ccccc1)[C@H](c1ccccc1)OCCOCCO[C@@H](c1ccccc1)[C@H](c1ccccc1)OC2`
Ans. 1.14 µM

Qu. # iterate: Cn1c(=O)c(Oc2ccc(F)cc2F)cc2cnc(NC3CCC(O)CC3)nc21 (configuration not stated)
Ans. > 25 µM

Qu. # iterate: COC(=O)C1CCC(=S)N1C(C)=O (configuration not stated)
Ans. > 100 µM

Qu. # iterate: `Nc1nc(Nc2cc(F)c(Cl)c(F)c2)cc(=O)[nH]1`
Ans. > 100 µM

Qu. # iterate: `Cc1nnc(N)s/c1=N/O`
Ans. > 100 µM

Qu. # iterate: `O=C1Cc2c(-c3ccccc3)cc(-c3ccc(Cl)cc3)nc2-c2ccccc2N1`
Ans. > 90.2 µM

Qu. # iterate: `CC(C)(CCc1nc2ccccc2[nH]1)C(=O)O`
Ans. > 100 µM

Qu. # iterate: `COc1cc(/C=C/C(=O)c2c(-c3ccc(Cl)cc3)nc3sc(C)nn23)cc(OC)c1OC`
Ans. > 100 µM

Qu. # iterate: `CCn1c(SC)nnc1-c1cc2c([nH]c3ccccc32)c(-c2cccc(O)c2)n1`
Ans. 24.9 µM

Qu. # iterate: COC1=C(C)C(=O)C2=C(C1=O)C1C3CC4=C(C(=O)C(OC)=C(C)C4=O)C(CNC(=O)C(C)=O)N3C(C#N)C(C2)N1C (configuration not stated)
Ans. 0.0862 µM

Qu. # iterate: Cc1c(N)nc(C2CC(=O)N2CC(N)C(N)=O)nc1C(=O)NC(C(=O)NC(C)C(O)C(C)C(=O)NC(C(=O)NCCc1nc(-c2nc(C(=O)NCCNCC(C)O)cs2)cs1)C(C)O)C(OC1OC(CO)C(O)C(O)C1OC1OC(CO)C(O)C(OC(N)=O)C1O)c1cnc[nH]1 (configuration not stated)
Ans. 37.6 µM

Qu. # iterate: `COc1ccc(/[N+]([O-])=C/c2ccccc2OC(=S)S)cc1`
Ans. > 100 µM

Qu. # iterate: `CC(=O)OCc1cc2c(s1)C(=O)c1sccc1C2=O`
Ans. 0.104 µM

Qu. # iterate: `O=C(CCc1ccccc1)NCCc1ccc(O)c(O)c1`
Ans. > 100 µM

Qu. # iterate: `CN1CCN(Cc2ccc(NC(=O)c3cncc(C#Cc4cnc5cccnn45)c3)cc2C(F)(F)F)CC1`
Ans. 5.34 µM

Qu. # iterate: `COc1ccc(-c2cc(=O)c3cc(OC)c(OC)cc3[nH]2)cc1OC`
Ans. > 100 µM
